Consider the following compounds and their measured Cytotoxicity study in B16F10 cells % viability readings.
# Test system: B16-F10 murine melanoma cell line
# Experiment Summary: Cytotoxicity in B16-F10 cells (MTT)
# Type: cell-based
# Experimental Parameters: 200 µM, 48 h
# Method: In order to determine safe doses of compounds for testing the inhibition of melanogenesis in a murine melanoma cell line, cytotoxicity tests were performed. Cytotoxicity was determined by the colorimetric method using MTT ([3-(4,5-dimethyl-2-thiazolyl)-2,5-diphenyl-2H-tetrazolium bromide, Sigma M5655). […] The absorbance was measured at 570 nm in a plate reader and the result was compared to the control (DMSO), which was 100%. […]
Metric: Cytotoxicity study in B16F10 cells % viability (%)

>>> print(df.to_string())
                                    compound                      tested_system  result_number
 0              O=C(/C=C/c1ccc(Cl)cc1)NCCCCO  B16-F10 murine melanoma cell line           51.9
 1             O=C(/C=C/c1ccc(Cl)cc1Cl)NCCCO  B16-F10 murine melanoma cell line           57.0
 2                 O=C(/C=C/c1ccccc1)NCCCCCO  B16-F10 murine melanoma cell line           94.9
 3               Cc1ccc(/C=C/C(=O)NCCCCO)cc1  B16-F10 murine melanoma cell line           34.9
 4  CC(CO)NC(=O)/C=C/c1ccc(Cl)cc1 (centres unmarked)  B16-F10 murine melanoma cell line           83.5
 5                Cc1ccc(/C=C/C(=O)NCCCO)cc1  B16-F10 murine melanoma cell line           90.7
 6  CCC(O)CNC(=O)/C=C/c1ccc(Cl)cc1Cl (centres unmarked)  B16-F10 murine melanoma cell line           90.8
 7         O=C(/C=C/c1ccc(Cl)cc1)N1CCC(O)CC1  B16-F10 murine melanoma cell line          102.6
 8  CCC(CO)NC(=O)/C=C/c1ccc(Cl)cc1 (centres unmarked)  B16-F10 murine melanoma cell line           93.2
 9           O=C(/C=C/c1ccc(Cl)cc1Cl)NCCCCCO  B16-F10 murine melanoma cell line           73.6
10                O=C(/C=C/c1ccc(Cl)cc1)NCCO  B16-F10 murine melanoma cell line           80.2
